test system: Swiss-Webster male mice; test: Mouse Activity and Screen Test (MAST): screen test failure; assay type: in vivo; details: 10 mg/kg i.p., 1 hour prior to testing

| molecule | Screen Test Failure [%] |
| --- | --- |
| Nc1nc(NCC(O)CO)c2ncn([C@@H]3O[C@H](CO)[C@@H](O)[C@H]3O)c2n1 (stereo partly drawn) | 99 |
| OC[C@H](O)CNc1ncnc2c1ncn2[C@@H]1O[C@H](CO)[C@@H](O)[C@H]1O [Example 2, (R)-N^6-[2,3-Dihydroxypropyl]adenosine] | 100 |
| CC1(C)OCC(CNc2ncnc3c2ncn3[C@@H]2O[C@H](CO)[C@@H](O)[C@H]2O)O1 (stereo partly drawn) | 66 |
| CC1(C)OC[C@@H](CNc2ncnc3c2ncn3[C@@H]2O[C@H](CO)[C@@H](O)[C@H]2O)O1 | 77 |
| OCC(O)CNc1ncnc2c1ncn2[C@@H]1O[C@H](CO)[C@@H](O)[C@@H]1O (stereo partly drawn) [Example 1, (R,S)-N^6 [2,3-Dihydroxypropyl]adenosine] | 100 |
| CC1(C)OC[C@H](CNc2ncnc3c2ncn3[C@@H]2O[C@H](CO)[C@@H](O)[C@H]2O)O1 | 0 |
| CC(C)CC(=O)OCC(CNc1ncnc2c1ncn2[C@@H]1O[C@H](COC(=O)CC(C)C)[C@@H](OC(=O)CC(C)C)[C@H]1OC(=O)CC(C)C)OC(=O)CC(C)C (stereo partly drawn) | 55 |
| C[C@H]1O[C@@H](n2cnc3c(NCC4COC(C)(C)O4)ncnc32)[C@H](O)[C@@H]1O (stereo partly drawn) | 0 |
| OC[C@@H](O)CNc1ncnc2c1ncn2[C@@H]1O[C@H](CO)[C@@H](O)[C@H]1O | 100 |

###

pIC50 overview
target: adenosine A1 receptor (Rattus norvegicus, UniProt P25099); construct: Whole brain minus cerebellum and brainstem from male Long Evans rats (150-200 g) was homogenized; from tissue; host or cells: rat whole brain minus cerebellum and brainstem, male Long Evans; assay: Adenosine A1 receptor binding (RBA-1), displacement of [3H]-CHA
Sequence (P25099 whole entry): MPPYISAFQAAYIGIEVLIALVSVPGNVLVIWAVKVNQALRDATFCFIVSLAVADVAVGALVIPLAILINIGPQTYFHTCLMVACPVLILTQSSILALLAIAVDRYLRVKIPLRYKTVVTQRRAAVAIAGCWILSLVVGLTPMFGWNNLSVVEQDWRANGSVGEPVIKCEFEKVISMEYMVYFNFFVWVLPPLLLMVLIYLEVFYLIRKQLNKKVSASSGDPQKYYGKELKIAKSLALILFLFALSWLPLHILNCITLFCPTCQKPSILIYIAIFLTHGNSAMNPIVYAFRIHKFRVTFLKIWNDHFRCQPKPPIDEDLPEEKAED
pIC50: −log10 of the molar value.

| compound | target | pIC50 |
| --- | --- | --- |
| OC[C@@H](O)CNc1ncnc2c1ncn2[C@@H]1O[C@H](CO)[C@@H](O)[C@H]1O | adenosine A1 receptor (Rattus norvegicus, UniProt P25099) | 7.34 |
| OC[C@H](O)CNc1ncnc2c1ncn2[C@@H]1O[C@H](CO)[C@@H](O)[C@H]1O [Example 2, (R)-N^6-[2,3-Dihydroxypropyl]adenosine] | adenosine A1 receptor (Rattus norvegicus, UniProt P25099) | 8.11 |

###

system: Swiss-Webster male mice; assay: Mouse Activity and Screen Test (MAST): screen test failure; format: in vivo; conditions: 1.0 mg/kg i.p., 1 hour prior to testing

| compound | Screen Test Failure, % |
| --- | --- |
| OC[C@@H](O)CNc1ncnc2c1ncn2[C@@H]1O[C@H](CO)[C@@H](O)[C@H]1O | 88 |
| OCC(O)CNc1ncnc2c1ncn2[C@@H]1O[C@H](CO)[C@@H](O)[C@@H]1O (stereo partly drawn) [Example 1, (R,S)-N^6 [2,3-Dihydroxypropyl]adenosine] | 100 |
| Nc1nc(NCC(O)CO)c2ncn([C@@H]3O[C@H](CO)[C@@H](O)[C@H]3O)c2n1 (some centres unmarked) | 88 |
| CC1(C)OCC(CNc2ncnc3c2ncn3[C@@H]2O[C@H](CO)[C@@H](O)[C@H]2O)O1 (some centres unmarked) | 0 |
| CC1(C)OC[C@@H](CNc2ncnc3c2ncn3[C@@H]2O[C@H](CO)[C@@H](O)[C@H]2O)O1 | 11 |
